Biological target: Recombinant human Gal3 (rhGal3) (TrueBinding, #QC200361) (human, UniProt P17931 2-250)
Experiment: cell-based or functional assay
just bin them by % inhibition of CD62L shedding: LOW = under 70%, MID = from 70% up to 90%, HIGH = 90% and over

binder	class_label
849.1D2 (antibody, V domains shown) VH: QVQLKESGPVLVAPSQSLSITCTVSGFSLSSYGVHWVRQPPGKGLEWLGVIWAGGSTDYDSALMSRLSISKDNSKSQVFLKMDSLQTDDTAMYYCAKPPYDYDGAWFAYWGQGTLVTVSA VL: DVVMTQTPKFLLVSAGDRVTITCKASQSVSSDVAWYQQKPGQSPKLLIYFASNRYTGVPDRFTGSGYGTDFTFTISTVQAEDLAVYFCQHNYISPFTFGGGTKLEIK	HIGH
847.11D6 (antibody, V domains shown) VH: EVKLQQSGPELMKPGTSMKISCKASGYSFTGYTMNWVKQSHGKNLEWIGLINPYNGGTNYNQKFRGKATLSVDKSSNTAYMELLSLTSEDSAVYYCARKDDYYGSSPYALDYWGQGTSVTVSS VL: DIVMTQSPASLAVSLGQRATISCRASESVENHVNSFMHWFQQKPGQPPKLLIYRASNLQSGIPARFSGSGSRTDFTLTINPVEADDVATYYCQQNNEVPYTFGGGTKLEIK	MID
F846TC.16B5 (antibody, human IgG4 S228P, kappa, V domains shown) VH: QIQLVQSGPELKKPGETVKISCKASGYTFTNYGMNWVKQAPGKGLKWMGWINTYTGEPAYADDFKGRFAFSLETSASTAYLQINNLKNEDMATYFCARWGGYDGDYYAMDYWGQGTSVTVSS VL: NIMMTQSPSSLAVSAGEKVTMSCKSSQSVLYSSNQKNYLAWYQQKPGQSPKLLIYWASTRESGVPDRFTGSGSGTDFTLTISSVQAEDLAVYYCHQYLSSLTFGAGTKLELKR	MID
13G4.2F8 (antibody, human IgG4 S228P, kappa, V domains shown) VH: QVQLQQPGAELVKPGASVKLSCKASGYTFTSYWMHWVKQRPGQGLEWIGMIHPNSGSTDYNEKFKNKATLNVDKSSSTAYIQLSSLTSEDSAVYYCTRWGIYYYARDYWGQGTTLTVSS VL: DIVMTQSQKFMSTSVGERVSITCKASQNVGTNVAWYQQKAGQSLELLIYGASNRHTGVPDRFTGSGSGTDFTLTITNVQSEDMTNYFCEQYSNFPLTFGAGTKLELKR	HIGH
847.4D3 (antibody, V domains shown) VH: EVQLVESGGGLVKPGGSLKLSCAASGFTFSSYAMSWVRQTPEKRLEWVASISSGDSPYYPDSVKGRFTISRDNARNILYLQMSSLRSEDTAMYYCTRFTTVVEMDYWGQGTSVTVSS VL: DVVMTQTPKFLPITAEDRVTITCKASQSVSNEVAWYQQKPGQSPKLLIYYASNRYTGVPDRFTGSGSGTDFTFTIRSVQLEDLAVYFCQQHYSSPWTFGGGTKLEIK	LOW
20H5.A3 (antibody, mouse IgG2a, V domains shown) VH: QIQLVQSGPELKKPGESVKISCKASGYAFTTYGMSWVQQAPGKGLKWMGWVNTYSGVPTCADDFKGRFAFSLETSASTAYLQINNLRNEDTATYFCARGPYAMDYWGQGTSVTVSS VL: DIQMTQTTSSLSASLGDRVTINCSASQDISNYLNWYQQKPDGTVKLLIYYTSSLLSGVPSRFSGSGSGTDYSLTISNLEPEDIATYFCQQYSKLPYTFGSGTHLEIKR	LOW
F849C.8D10 (antibody, human IgG4 S228P, kappa, V domains shown) VH: QVQLQQTGAELVKPGASVKLSCKASGYTFTSYWINWVKQRPGQGLEWIGNIYPGSSSIYYSEKFKSKATLTVDTSSSTAYMQLSSLTSDDSAVYYCARWGYWGQGTTLTVSS VL: DVLMTQTPLSLPVSLGDQASISCRSSQDIVHSSGNTYLEWYLQKPGQSLKLLIYKVSNRFSGVPDRFSASGSGTDFTLKISRVEAEDLGVYYCFQGSHVPPTFGSGTKLEIKR	HIGH
847.16D10 (antibody, V domains shown) VH: QVQLQQSGAELVRPGASVKLSCKASGYTFTGYWLNWVKQRPGQGLEWIGMIDPSDSETHYNQVFKDKATMTVDRSSSTAYMQLSGLTSEDSAVYYCANSNYASGSWGQGTTLTVSS VL: QAVVTQESALTTSPGETVTLTCRSSTGAVTTSNYANWDQEKPDHLFTGLIGGTNNRAPGVPARFSGSLIGDKAALTITGAQTEDEAIYFCALWYSNHLVFGGGTKVTVL	LOW
13A12.2E5 (antibody, mouse IgG2a, V domains shown) VH: QIQLVQSGPELKKPGETVKISCKTSGYKFKTYVMSWVKQAPGKALKWMGWINTYSGVPTYADDFKGRFAFSLETSASTAYLEIINLKNEDTATYFCARDGNYGDPMDYWGQGTSVTVSS VL: DVVMTQTPLTLSVAIGQPASISCKSSQSLLYTNGKTYLNWLLQRPGQSPKRLIYLLSKLDSGVPDRFSASGSGTDFTLKISRVEAEDLGVYYCLQSTHFPLTFGAGTKLEMKR	MID
847.13E2-mH0mL2 (antibody, V domains shown) VH: EVQLQQSGPELVKPGASVKVSCKASGYSFTDYNMYWVMQSHGKSLEWIGYIDPYNDATSYSQKFTGKATLTVDKSSSTAFMHLNSLTSEDSAVYYCARWGRYEYYAMDYWGQGTSVTVSS VL: DIVLTQSPATLSVTPGDSVSFSCRASQIINNNLHWYQQKSHESPRLLIRYTSQSISGIPSRFSGSGSGTDFTLSINNVETEDFGMYFCQQTNSWPLTFGAGTKLELK	LOW
